Reported inhibition values follow for various compounds
- test details: inhibitors of the yeast RAM network, pilot screen, dse1pr::URA3 reporter, 5-FOA selection (AID 869);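 further: 0% = DMSO wells with no growth and 100% = 10 µM 1-NA-PP1 with full growth; RAM network block rescues cells from 5-FOA so hits raise OD615 growth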
- condition context: S. cerevisiae dse1pr::URA3 5-FOA growth, OD615, 2 d; at 10 µM; active compounds read high; strain carries analog-sensitive mutant Cbk1 kinase
The source made the active and inactive calls.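 How the source made its calls: active means inhibition over a set limit, the all-compound mean plus 3 SD, in both replicate runs; inconclusive means over that limit in just one replicate run; inactive means at or under that limit in both runs.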

Would you please look over these solved cases?
CCOC(=O)C1CCN(CC(O)COc2ccc(C(C)=O)cc2)CC1 (stereo not given)
0.87% (inactive)
CN(C)c1nc(N)nc(-c2ccco2)n1
0.535% (inactive)
Cc1cc(-n2nc(C)cc2C)nc(NS(=O)(=O)c2ccccc2)n1
2.98% (inactive)
Cc1nn(C)c(C)c1S(=O)(=O)N(CC(=O)Nc1nccs1)c1ccc(C(C)C)cc1
2.3% (inactive)
CN=C(NC)SC1CC(=O)N(c2ccccc2)C1=O (stereo not given)
0.305% (inactive)

Give inhibition for CCOCCCNC(=O)C(NC(=O)CNC(C)=O)c1ccc(Cl)cc1 (stereo not given)
2.1% (inactive)

Provide only the value of recorded inhibition for Cc1ccc(C)c(N2CCN(C(=O)C3CCCN(S(=O)(=O)c4cnc[nH]4)C3)CC2)c1 (stereo not given)
2.12% (inactive)
